Quick reference for cytotoxicity among some compounds
Assay: viability loss of HPDE-C7K cells – cell-based, fluorescence, HTS, primary screen (AID 431);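 further: 0% = DMSO solvent wells and 100% = doxorubicin-treated wells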
Conditions: HPDE-C7K KRASV12 cells, Alamar Blue viability, 48 h; at 10 µM; hits give high values
Among all 63,000 compounds or so, about 1,100 (1.7%) were called active. This excerpt belongs to a sample that is enriched for actives. Results with a measured potency or affinity are listed apart.
Number in %, nothing else.

Check out these entries, answers already filled in.
compound	cytotoxicity / %
Cn1c(CN2CCOCC2)nnc1SCC(=O)Nc1nccs1	1.8
Cc1cccc(CN2CCN(C(c3ccccc3)c3ccc(Cl)cc3)CC2)c1 (stereo not drawn)	85.4
COC(=O)CN(c1cc(C(F)(F)F)ccc1Cl)S(C)(=O)=O	-0.9
Cc1ccc2nc(NC3=NCN(Cc4ccco4)CN3)nc(C)c2c1	8.2
Cc1ccccc1CS(=O)(=O)Cc1ccc(C(=O)NCCCN2CCCC2=O)o1	-10.2
Cc1cc(N2CCN(C(c3ccccc3)c3ccc(Cl)cc3)CC2)n2ncnc2n1 (stereo not drawn)	8.1

Could you now consider this next compound?
Query: Read off the recorded cytotoxicity for C[C@]12CC[C@@H]3c4ccc(O)cc4CC[C@H]3[C@@H]1CC[C@@H]2OC(=O)CCC(=O)O
Result: -1.7
